- Test system: H1-HeLa cells
- assay.protocol: Cytotoxicity (CC50) in mock-infected H1-HeLa cells, XTT dye reduction
- Type: cell-based, human
- settings: line of HRV-1A
Record form. Attribute: CC50. Fill in for each entry.

Lab note: measured CC50 of C#CC[C@@H](C(=O)N[C@H](/C=C/C(=O)OCC(C)(C)C)C[C@@H]1CCNC1=O)n1cccc(NC(=O)c2cc(C)on2)c1=O (relative stereo) was > 10 µM

Lab note: measured CC50 of CC[C@@H](C(=O)N[C@H](/C=C/C(=O)OC1CCCC1)C[C@@H]1CCNC1=O)n1cccc(NC(=O)c2cc(Cl)on2)c1=O was > 10 µM

Lab note: measured CC50 of Cc1cc(C(=O)Nc2cccn(C(Cc3ccc(F)c(F)c3)C(=O)N[C@H](/C=C/C(=O)OCC(C)(C)C)C[C@@H]3CCNC3=O)c2=O)no1 (relative stereo) was > 10 µM

Hey, just so you know, these numbers are from patent US6514997B2.
